# study target: Carbonic anhydrase 2 (Homo sapiens)
# assay explanation: Inhibition of human carbonic anhydrase 2 preincubated for 15 mins by CO2 hydration stopped-flow assay
measurement kind: Ki (nM)
Give bare numbers, in nM.

Which value of Ki has been reported for "COc1ccccc1/C=C(\C#N)C(=O)Nc1ccc(S(N)(=O)=O)cc1" in the records?
6.9

====

# study target: Carbonic anhydrase 12 (Homo sapiens, UniProt O43570)
# Sequence (O43570 whole entry): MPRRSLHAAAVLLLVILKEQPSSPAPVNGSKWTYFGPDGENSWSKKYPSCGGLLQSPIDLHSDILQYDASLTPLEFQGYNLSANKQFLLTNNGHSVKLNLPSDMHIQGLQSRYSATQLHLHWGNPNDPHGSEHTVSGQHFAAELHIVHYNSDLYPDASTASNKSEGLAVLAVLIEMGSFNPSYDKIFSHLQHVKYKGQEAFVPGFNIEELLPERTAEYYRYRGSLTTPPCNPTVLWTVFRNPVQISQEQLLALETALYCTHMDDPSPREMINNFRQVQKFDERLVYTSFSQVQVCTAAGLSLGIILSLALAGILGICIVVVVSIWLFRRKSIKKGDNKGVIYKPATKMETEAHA
For each of the compounds below, state its Ki.
Answers are plain numbers, in nM.

Which value of Ki has been reported for "N#C/C(=C\c1ccco1)C(=O)Nc1ccc(S(N)(=O)=O)cc1" in the records?
6.3

Further cases:
Which value of Ki has been reported for "COc1ccccc1/C=C(\C#N)C(=O)Nc1ccc(S(N)(=O)=O)cc1" in the records?
0.6

This collection of values is drawn from ChEMBL document CHEMBL2331255.
